Data origin: patent US20250042994A1

The binders listed here are annotated with their Maximum mean fluorescence intensity.
Target: T1, human CD19 on Raji cells (human, UniProt P15391 20-556)
T1 construct: whole, on cells
T1 sequence (looked up): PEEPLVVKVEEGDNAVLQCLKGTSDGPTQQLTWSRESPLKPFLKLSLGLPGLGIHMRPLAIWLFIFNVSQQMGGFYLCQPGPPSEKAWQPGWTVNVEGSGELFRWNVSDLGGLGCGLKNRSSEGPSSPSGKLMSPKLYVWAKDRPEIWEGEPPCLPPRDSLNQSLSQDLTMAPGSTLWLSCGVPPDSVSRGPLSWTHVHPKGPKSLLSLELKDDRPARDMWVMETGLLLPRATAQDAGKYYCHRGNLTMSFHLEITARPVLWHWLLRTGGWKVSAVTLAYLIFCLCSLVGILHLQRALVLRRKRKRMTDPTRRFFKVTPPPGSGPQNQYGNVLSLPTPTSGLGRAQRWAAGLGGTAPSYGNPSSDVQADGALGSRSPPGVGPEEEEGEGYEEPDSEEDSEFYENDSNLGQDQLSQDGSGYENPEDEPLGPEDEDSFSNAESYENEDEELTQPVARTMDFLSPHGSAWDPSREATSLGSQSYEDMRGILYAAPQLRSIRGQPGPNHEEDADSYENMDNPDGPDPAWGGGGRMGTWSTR
Test: FACS on Raji cells
// no unit, no text: just the number

Known results for binders:
Binder: F3.13.2 (antibody, human IgG1, V domains shown, human-murine chimeric antibody, human IgG1) VH: DVQLQESGPGLMKPSQSLSLTCSVTGYSITSGYYWNWIRQFPGNKLEWMGYISYDGSNNYNPSLKNRFSITRDTSKNQFFLKLNSVTTEDTATYYCARRKLTGGPYFDYWGQGTTLTVSS VL: DIVLTQSPASLAVTLGQRATISCRASESVSFHGFHIMHWYQQKPGQPPKLLIYAASHLVSGVPDRFSGSGSETDFTLNIHPVEEEDAAAYFCQQSVEDPWTFGGGTKLEIK
Maximum mean fluorescence intensity: 27100
//
Binder: F3.114.12 (antibody, human IgG1, V domains shown, human-murine chimeric antibody, human IgG1) VH: DVQLQESGPGLVKPSQSLSLTCSVTGYSITSGYDWNWIRQFPGNKLEWMGYISYDGKNNYNPSLRNRISITRDTSKNQFFLKLNSVTTEDTATYYCARRDLRGYFDVWGTGTTVTVSS VL: DIVLTQSPATLSVTPGDRVSLSCRASQSISNYLHWYQQKSHESPRLLIKYASLSISGIPSRFSGSGSGTDFTLSINSVETEDFGVYFCQQSNSWPLTFGAGTKLELK
Maximum mean fluorescence intensity: 28700

With those in mind, consider the next binder.
INPUT: // Maximum mean fluorescence intensity lookup, key: F5.7.1 (antibody, human IgG1, V domains shown, human-murine chimeric antibody, human IgG1) VH: QVTLKESGPGILQPSQTLSLTCSFSGFSLTTFGMGVGWIRQPSGKGLEWLTHIWWDDDKYYNPALKSRLTISKDTSKNQVFLRIANVDTADTATYYCARVITTGVPYFDYWGQGTTLTVSS VL: ENVLTQSPAIMSASPGEKVTMTCRASSSVSSSYLYWYQQKSGASPKLWISSTSNLASGVPARFSGSGSGTSYSLTINSVEAEDAATYYCQQYSGYPWTFGGGTKLEIK
OUTPUT: 28700
